Molecular target: BChE from equine serum (Equus caballus)
Sequence (P81908 whole entry): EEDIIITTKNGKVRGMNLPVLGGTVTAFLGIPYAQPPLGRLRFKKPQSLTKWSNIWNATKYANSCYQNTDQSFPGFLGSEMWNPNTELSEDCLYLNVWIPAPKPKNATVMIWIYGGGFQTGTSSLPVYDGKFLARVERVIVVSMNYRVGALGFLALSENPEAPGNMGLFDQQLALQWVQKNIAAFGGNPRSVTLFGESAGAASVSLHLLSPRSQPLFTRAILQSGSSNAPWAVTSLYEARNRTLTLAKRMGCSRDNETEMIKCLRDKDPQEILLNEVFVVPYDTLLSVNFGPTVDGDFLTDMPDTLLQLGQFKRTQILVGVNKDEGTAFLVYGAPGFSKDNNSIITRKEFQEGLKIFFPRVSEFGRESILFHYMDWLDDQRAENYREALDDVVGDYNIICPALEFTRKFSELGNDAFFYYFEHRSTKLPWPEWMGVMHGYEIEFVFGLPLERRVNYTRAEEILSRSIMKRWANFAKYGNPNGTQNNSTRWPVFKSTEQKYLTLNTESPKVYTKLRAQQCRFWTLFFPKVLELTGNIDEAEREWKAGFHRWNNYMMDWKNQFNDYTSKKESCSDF
Assay: biochemical
Conditions: mean ± SD of three experiments
OUTCOME MEASURE: IC50 (µM)
Numbers only, in µM.

Reference set (3 entries):
| COMPOUND | UNIT DESCRIPTOR | IC50 |
| --- | --- | --- |
| COc1cccc(CCc2cc(OC)cc(O)c2Cc2ccc(O)cc2)c1 [Compound 1, gymconopin D] | µM | 40.5 |
| COc1cc(O)cc(CCc2cccc(O)c2)c1Cc1ccc(O)cc1 [Compound 3] | µM | 80.3 |
| COc1cc(O)c(Cc2ccc(O)cc2)c2ccc3cc(O)ccc3c12 [Compound 10] | µM | 2.1 |

For every item below, please supply its IC50.
1. COc1cc(C2Oc3cc4c(c(OC)c3C2CO)-c2ccc(O)cc2CC4)ccc1O (centres unmarked) [Compound 19]
2. COc1c(O)c(Cc2ccc(O)cc2)c2ccc3cc(O)ccc3c2c1OC [Compound 13, bleformin B]

Result:
1: 35.8; 2: 16.7
